biological target: N. gonorrhoeae PBP2 (Neisseria gonorrhoeae); construct: made in house; test: Bocillin-FL fluorescence polarization competition binding assay, N. gonorrhoeae PBP2; conditions: fluorescence polarization competition binding assay using Bocillin-FL; read-out: N. gonorrhoeae PBP2 Potency
Sequence (P08149 whole entry): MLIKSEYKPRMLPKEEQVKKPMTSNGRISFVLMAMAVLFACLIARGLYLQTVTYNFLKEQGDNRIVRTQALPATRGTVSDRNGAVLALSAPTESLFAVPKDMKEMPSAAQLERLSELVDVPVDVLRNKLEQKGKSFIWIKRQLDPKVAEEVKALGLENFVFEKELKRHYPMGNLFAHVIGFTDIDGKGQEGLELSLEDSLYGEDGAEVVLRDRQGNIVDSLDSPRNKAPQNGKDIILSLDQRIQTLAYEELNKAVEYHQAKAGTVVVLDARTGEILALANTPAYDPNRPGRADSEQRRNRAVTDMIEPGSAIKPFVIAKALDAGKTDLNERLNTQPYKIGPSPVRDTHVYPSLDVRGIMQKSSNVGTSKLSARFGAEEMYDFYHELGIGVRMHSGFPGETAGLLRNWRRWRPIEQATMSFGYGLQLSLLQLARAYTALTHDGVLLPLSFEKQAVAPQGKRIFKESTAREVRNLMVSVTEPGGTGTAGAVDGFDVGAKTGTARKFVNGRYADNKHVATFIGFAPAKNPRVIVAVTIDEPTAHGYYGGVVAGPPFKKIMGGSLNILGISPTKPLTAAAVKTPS

Molecule | Target | EC50
CCN1CCN(C(=O)N[C@H](C(=O)N[C@H]2Cc3cccc(C(=O)O)c3OB2O)c2cc(F)c(C(=O)O)cc2Cl)C(=O)C1=O (single isomer, unassigned) | N. gonorrhoeae PBP2 (Neisseria gonorrhoeae) | 30 to 100 µM
NCCN1CCN(C(=O)NC(C(=O)N[C@H]2Cc3cccc(C(=O)O)c3OB2O)c2c(F)cc(NS(N)(=O)=O)cc2F)C(=O)C1=O (stereo partly drawn) | N. gonorrhoeae PBP2 (Neisseria gonorrhoeae) | 10 to 30 µM
NCCCN1CCN(C(=O)NC(C(=O)N[C@H]2Cc3ccc(F)c(C(=O)O)c3OB2O)c2c(F)cc(O)cc2F)C(=O)C1=O (stereo partly drawn) | N. gonorrhoeae PBP2 (Neisseria gonorrhoeae) | > 100 µM
NCCN1CCN(C(=O)N[C@@H](C(=O)N[C@H]2Cc3cccc(C(=O)O)c3OB2O)c2ccc(C(=O)O)cc2)C(=O)C1=O (single isomer, unassigned) | N. gonorrhoeae PBP2 (Neisseria gonorrhoeae) | < 10 µM
CCN1CCN(C(=O)N[C@H](C(=O)N[C@H]2Cc3cccc(C(=O)O)c3OB2O)c2ccc(C(=O)O)c(F)c2F)C(=O)C1=O (single isomer, unassigned) | N. gonorrhoeae PBP2 (Neisseria gonorrhoeae) | < 10 µM
CCN1CCN(C(=O)N[C@@H](C(=O)N[C@H]2Cc3cc(Cl)c(F)c(C(=O)O)c3OB2O)c2c(F)cc(O)c(O)c2Cl)C(=O)C1=O | N. gonorrhoeae PBP2 (Neisseria gonorrhoeae) | 30 to 100 µM
NCCCN1CCN(C(=O)NC(C(=O)N[C@H]2Cc3cccc(C(=O)O)c3OB2O)c2c(F)cc(O)cc2F)C(=O)C1=O (stereo partly drawn) | N. gonorrhoeae PBP2 (Neisseria gonorrhoeae) | < 10 µM
CCN1CCN(C(=O)NC(C(=O)N[C@H]2Cc3cccc(C(=O)O)c3OB2O)c2c(F)cc(NS(N)(=O)=O)cc2F)C(=O)C1=O (stereo partly drawn) | N. gonorrhoeae PBP2 (Neisseria gonorrhoeae) | < 10 µM
CCN1CCN(C(=O)NC(C(=O)N[C@H]2Cc3cccc(C(=O)O)c3OB2O)c2c(F)cc(O)cc2Cl)C(=O)C1=O (stereo partly drawn) | N. gonorrhoeae PBP2 (Neisseria gonorrhoeae) | < 10 µM
O=C(O)c1cccc2c1OB(O)[C@@H](NC(=O)C(NC(=O)N1CCN(CC3CNC3)C(=O)C1=O)c1c(F)cc(O)cc1F)C2 (stereo partly drawn) | N. gonorrhoeae PBP2 (Neisseria gonorrhoeae) | 10 to 30 µM
CCN1CCN(C(=O)NC(C(=O)N[C@H]2Cc3cccc(C(=O)O)c3OB2O)c2ccc(O)c(Cl)c2F)C(=O)C1=O (stereo partly drawn) | N. gonorrhoeae PBP2 (Neisseria gonorrhoeae) | < 10 µM
CCN1CCN(C(=O)NC(C(=O)N[C@H]2Cc3cccc(C(=O)O)c3OB2O)c2ccc(C(=O)O)c(Cl)c2Cl)C(=O)C1=O (stereo partly drawn) | N. gonorrhoeae PBP2 (Neisseria gonorrhoeae) | 10 to 30 µM

====

tested on: E. coli AG100; assay: Broth microdilution MIC in CAMHB; type: cell-based; settings: Escherichia coli; E. coli AG100 (wild-type parent); MHB; read-out: Minimum Inhibitory Concentration, E. coli AG100
Listed here are compounds together with their documented MIC.
Quantity kind: MIC

Compound | Target | Observed
NCCCN1CCN(C(=O)NC(C(=O)N[C@H]2Cc3ccc(F)c(C(=O)O)c3OB2O)c2c(F)cc(O)cc2F)C(=O)C1=O (stereo partly shown) | E. coli AG100 | 8 to 16 µg/mL
CCN1CCN(C(=O)NC(C(=O)N[C@H]2Cc3ccc(SCCN)c(C(=O)O)c3OB2O)c2csc(N)n2)C(=O)C1=O (stereo partly shown) | E. coli AG100 | > 128 µg/mL
CCN1CCN(C(=O)NC(C(=O)N[C@H]2Cc3cccc(C(=O)O)c3OB2O)c2ccc(C(N)=O)c(O)c2)C(=O)C1=O (stereo partly shown) | E. coli AG100 | 32 to 64 µg/mL
CCN1CCN(C(=O)NC(C(=O)N[C@H]2Cc3ccc(CO)c(C(=O)O)c3OB2O)c2csc(N)n2)C(O)C1=O (stereo partly shown) | E. coli AG100 | > 128 µg/mL

====

molecular target: E. coli K12 PBP3 (Escherichia coli, UniProt P0AD68); test: biochemical
Sequence (P0AD68 1-577): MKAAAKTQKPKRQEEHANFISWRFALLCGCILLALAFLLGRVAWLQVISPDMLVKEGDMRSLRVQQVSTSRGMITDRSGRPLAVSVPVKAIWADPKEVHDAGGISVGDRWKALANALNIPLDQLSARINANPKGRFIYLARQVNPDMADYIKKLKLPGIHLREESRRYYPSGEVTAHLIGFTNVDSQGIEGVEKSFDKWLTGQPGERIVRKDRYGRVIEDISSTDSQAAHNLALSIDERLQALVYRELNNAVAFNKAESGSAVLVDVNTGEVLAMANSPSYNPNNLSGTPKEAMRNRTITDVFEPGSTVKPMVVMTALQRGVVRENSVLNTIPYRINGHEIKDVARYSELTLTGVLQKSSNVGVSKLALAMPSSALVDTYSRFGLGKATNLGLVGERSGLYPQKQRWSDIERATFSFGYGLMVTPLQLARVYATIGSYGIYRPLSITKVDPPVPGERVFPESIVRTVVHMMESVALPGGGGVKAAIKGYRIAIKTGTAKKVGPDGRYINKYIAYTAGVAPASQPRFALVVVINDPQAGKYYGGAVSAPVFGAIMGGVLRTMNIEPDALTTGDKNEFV

Molecule | EC50
CCN1CCN(C(=O)N[C@@H](C(=O)N[C@H]2Cc3ccc(F)c(C(=O)O)c3OB2O)c2ccc(O)c(O)c2)C(=O)C1=O | < 30 µM
NCCN1CCN(C(=O)N[C@H](C(=O)N[C@H]2Cc3cccc(C(=O)O)c3OB2O)c2cccc(NS(N)(=O)=O)c2)C(=O)C1=O (single isomer, unassigned) | 30 to 500 µM
CCN1CCN(C(=O)NC(C(=O)N[C@H]2Cc3cccc(C(=O)O)c3OB2O)c2c(F)cc(NS(N)(=O)=O)cc2F)C(=O)C1=O (stereo partly drawn) | < 30 µM
O=C(O)c1c(F)ccc2c1OB(O)[C@@H](NC(=O)[C@H](NC(=O)N1CCNC1=O)c1c(F)cc(O)c(O)c1Cl)C2 (single isomer, unassigned) | < 30 µM
CCN1CCN(C(=O)NC(C(=O)N[C@H]2Cc3ccc(CO)c(C(=O)O)c3OB2O)c2csc(N)n2)C(O)C1=O (stereo partly drawn) | 30 to 500 µM
NCCN1CCN(C(=O)N[C@H](C(=O)N[C@H]2Cc3cccc(C(=O)O)c3OB2O)c2c(F)cccc2Cl)C(=O)C1=O (single isomer, unassigned) | > 500 µM

====

tested on: P. aeruginosa CDC-0090 producing KPC-5, OXA-50, and PAO; assay: Broth microdilution MIC in iron-depleted CAMHB (IDM); type: cell-based; details: Pseudomonas aeruginosa, read-out: Minimum Inhibitory Concentration, P. aeruginosa CDC-0090

Compound | MIC
CCN1CCN(C(=O)N[C@H](C(=O)N[C@H]2Cc3ccc(F)c(C(=O)O)c3OB2O)c2c(F)cc(O)c(O)c2Cl)C(=O)C1=O (single isomer, unassigned) | > 128 µg/mL
O=C(O)c1ccc(C(NC(=O)c2ccc(O)c(O)c2Cl)C(=O)N[C@H]2Cc3cccc(C(=O)O)c3OB2O)cc1F (stereo partly drawn) | 0.5 to 1 µg/mL
O=C(O)c1c(F)ccc2c1OB(O)[C@@H](NC(=O)C(NC(=O)N1CCN(CCF)C(=O)C1=O)c1c(F)cc(O)c(O)c1F)C2 (stereo partly drawn) | 2 to 4 µg/mL
NCCN1CCN(C(=O)N[C@@H](C(=O)N[C@H]2Cc3ccc(F)c(C(=O)O)c3OB2O)c2cc(F)c(O)c(O)c2Cl)C(=O)C1=O (single isomer, unassigned) | 2 to 4 µg/mL
O=C(NCCN1CCN(C(=O)NC(C(=O)N[C@H]2Cc3ccc(F)c(C(=O)O)c3OB2O)c2ncc(O)cc2F)C(=O)C1=O)c1c(F)cc(O)c(O)c1Cl (stereo partly drawn) | 0.25 µg/mL
C[C@H]1CN(CCNC(=O)c2ccc(O)c(O)c2Cl)C(=O)C(=O)N1C(=O)NC(C(=O)N[C@H]1Cc2cccc(C(=O)O)c2OB1O)c1ncc(O)cc1F (stereo partly drawn) | 2 to 4 µg/mL

====

Tested on: E. coli AG100A
Assay: Broth microdilution MIC in CAMHB
Assay type: cell-based
Settings: Escherichia coli, read-out: Minimum Inhibitory Concentration, E. coli AG100A
Description: Example III: In Vitro Antibacterial Assays To determine the ability of test compounds to inhibit the growth of bacterial strains, classic cell based broth microdilution minimum inhibitory concentration (MIC) assays were employed. […] Briefly, cryo-preserved bacterial cultures of challenge strains are streaked for isolation on appropriate agar medium, in this case cation-adjusted Mueller Hinton agar. […] The MIC values are read visually as the lowest concentration well with no bacterial growth.
Listed here are compounds together with their documented MIC.
Quantity kind: MIC

Compound | Quantity kind | Observed
NS(=O)(=O)Nc1ccc(F)c(C(NC(=O)N2CCN(CCF)C(=O)C2=O)C(=O)N[C@H]2Cc3cccc(C(=O)O)c3OB2O)c1 (stereo partly drawn) [Example 198] | MIC | 0.5 to 1 µg/mL
NCCN1CCN(C(=O)N[C@H](C(=O)N[C@H]2Cc3ccc(F)c(C(=O)O)c3OB2O)c2c(F)cc(O)cc2F)C(=O)C1=O (single isomer, unassigned) [Example 128] | MIC | 32 to 64 µg/mL
CCN1CCN(C(=O)NC(C(=O)N[C@H]2Cc3cccc(C(=O)O)c3OB2O)c2c(F)c(F)c(O)c(F)c2F)C(=O)C1=O (stereo partly drawn) [Example 175] | MIC | 2 to 4 µg/mL
NCCN1CCCN(C(=O)N[C@H](C(=O)N[C@H]2Cc3cccc(C(=O)O)c3OB2O)c2c(F)cc(O)cc2F)C1=O (single isomer, unassigned) [Example 231] | MIC | > 128 µg/mL
NS(=O)(=O)NC(C(=O)N[C@H]1Cc2cccc(C(=O)O)c2OB1O)c1ccc(C(=O)O)c(F)c1 (stereo partly drawn) [Example 44] | MIC | > 128 µg/mL
CCN1CCN(C(=O)NC(C(=O)N[C@H]2Cc3cccc(C(=O)O)c3OB2O)c2cccc(NC(=O)c3cccnc3)c2)C(=O)C1=O (stereo partly drawn) [Example 97] | MIC | 8 to 16 µg/mL
